# Test system: HepG2
# PROTOCOL_DETAILS: Antiproliferative activity against human HepG2 cells incubated for 72 hrs by MTT assay
# Type: functional, cell-based
# CONDITION_CONTEXT: HepG2, 72 h
MEASURE_NAME: IC50

Examples with their reported IC50 follow.
[
  {
    "SMILES_REPRESENTATION": "FC(F)(F)c1ccc(COc2cccc(Nc3ncnc4cc5c(cc34)OCCOCCO5)c2)cc1",
    "MEASURE_NAME": "IC50",
    "READOUT_VALUE": "> 100 µM"
  },
  {
    "SMILES_REPRESENTATION": "FC(F)(F)c1ccc(COc2ccccc2Nc2ncnc3cc4c(cc23)OCCOCCO4)cc1",
    "MEASURE_NAME": "IC50",
    "READOUT_VALUE": "> 100 µM"
  }
]

Give HepG2 IC50 for FC(F)(F)c1ccc(COc2ccc(Nc3ncnc4cc5c(cc34)OCCOCCOCCOCCO5)cc2)cc1 3.34 µM

Request: IC50, test system HepG2, entry O=[N+]([O-])c1ccc(COc2ccccc2Nc2ncnc3cc4c(cc23)OCCOCCO4)cc1 50.2 µM

# get_value(readout= IC50, system= HepG2) for FC(F)(F)c1ccc(COc2cccc(Nc3ncnc4cc5c(cc34)OCCOCCOCCOCCO5)c2)cc1 5.7 µM

IC50 of O=[N+]([O-])c1ccc(COc2ccccc2Nc2ncnc3cc4c(cc23)OCCOCCOCCO4)cc1 on HepG2? 60.8 µM

Hi! What's the reported IC50 for FC(F)(F)c1ccc(COc2ccc(Nc3ncnc4cc5c(cc34)OCCOCCO5)cc2)cc1 on HepG2? > 100 µM

Query the reported IC50 for HepG2; item: O=[N+]([O-])c1ccc(COc2cccc(Nc3ncnc4cc5c(cc34)OCCOCCOCCO5)c2)cc1 > 100 µM

Form field: IC50 recorded for c1ccc(COc2ccccc2Nc2ncnc3cc4c(cc23)OCCOCCO4)cc1 with HepG2 (enter value) > 100 µM

API: value(readout=IC50, system=HepG2) for record O=[N+]([O-])c1ccc(COc2ccc(Nc3ncnc4cc5c(cc34)OCCOCCOCCOCCO5)cc2)cc1 > 100 µM

# get_value(readout= IC50, system= HepG2) for FC(F)(F)c1ccc(COc2ccc(Nc3ncnc4cc5c(cc34)OCCOCCOCCO5)cc2)cc1 > 100 µM

Given the entry c1ccc(COc2ccc(Nc3ncnc4cc5c(cc34)OCCOCCO5)cc2)cc1 , what IC50 was observed with HepG2? 55.5 µM

Param readout= IC50; system= HepG2; entry= c1ccc(COc2cccc(Nc3ncnc4cc5c(cc34)OCCOCCOCCO5)c2)cc1 ; returns value. > 100 µM
